- measurement description: SW1088 Cancer Cell Toxicity qHTS against the NCATS CANVASS Library (AID 1347350); note: nearly all actives have a fitted effect of over 75% in size
- experimental conditions: SW1088 viability, CellTiter-Glo luminescence, 72 h; series mostly up to 38.3 µM
Results filed as inconclusive are left out. Active and inactive are the calls of the source. Calls come from the whole dose curve; as a rule, active = well fitted cell-killing curve with a large enough effect; inconclusive = small, poorly fitted or top-dose-only effect; inactive = flat fitted curve, though single readings scatter. Starred links: 1 amine or outer side, 2 acyl side, 3 side chain; linkers in the order of their positions; H or OH if unused. Positions of bridges follow the written chain, without caps; N, C: chain ends. Non-standard residues stand in square brackets, D forms with d. Residues, ends and D or L forms follow the SMILES beside them. ξ: configuration not given here. *: point of attachment. X3 = C[C@@H](Oc1ccc([C@H](N[*:1])C(=O)[*:2])cc1)[C@]1(/C=C\C(=O)[*:3])CO1; d(aIle) = CC[C@H](C)[C@@H](N)C(=O)O; X2 = CC(C)[C@@H](O)C(C)C(=O)*; ξNMeF = CNC(Cc1ccccc1)C(=O)O; ξT = CC(O)C(N)C(=O)O; ξS = NC(CO)C(=O)O
Assign a class; possible classes are active, inactive

[
  {
    "compound": "C/C=C1/CN2CC[C@]34C(=C(C(=O)OC)[C@H]1C[C@H]23)Nc1ccccc14",
    "label value": "inactive"
  },
  {
    "compound": "C/C=C(\\C)C(=O)O[C@@H]1[C@@H](O)[C@@H]2O[C@H]3[C@H](O[C@@H](CCCCC)CCCCCCC(=O)CCC(=O)OC[C@@H](O2)[C@H]1OC(=O)/C=C/c1ccccc1)O[C@H](C)[C@H](OC(C)=O)[C@@H]3O",
    "label value": "active"
  }
]

Consider the record given below.
Q: Look up the recorded call for CC[C@H](C)[C@H]1NC(=O)[C@@H](NC(=O)C(C)[C@H](O)C(C)C)[C@@H](C)OC(=O)C2COC(=O)CNC(=O)/C=C\[C@]3(CO3)[C@@H](C)Oc3ccc(cc3)[C@H](NC1=O)C(=O)N(C)C(Cc1ccccc1)C(=O)NC(C(C)O)C(=O)N2 (stereo partly drawn) (X2-T[d(aIle)][X3][ξNMeF][ξT][ξS]; ester 1-C; linker 3-6 via G) in this test.
Ans: inactive

* * *

- subject of test: Glucocorticoid receptor (Homo sapiens)
- measurement description: GR-EFC Redistribution (AID 451); note: potency is the fitted concentration of half-maximal effect
- experimental conditions: CHO-K1 GR-EFC translocation, beta-gal luminescence, 2 h
- Method: NIH Molecular Libraries Screening Centers Network [MLSCN] NIH Chemical Genomics Center [NCGC] The glucocorticoid receptor (GR) is a cytoplasmic receptor that belongs to the nuclear receptor family of ligand-dependent transcription factors. […] GR-translocation was measured beta-gal enzyme activity using the PathHunter Detection Kit containing cell membrane permeablizing reagent and beta-gal substrate (DiscoveRx, Fremont, CA). […] Read plate in luminescence mode in ViewLux plate reader (PerkinElmer) […]
Activity calls are given as the source filed them. Calls come from the whole dose curve.
reported property: Potency

Field: example entries. Status: answers known.
[
  {
    "compound": "COc1cc2c(cc1O)C[C@H]1c3c(cc(OC)c(O)c3-2)CCN1C",
    "Potency": "> 46 µM (inactive)"
  },
  {
    "compound": "CC[C@H](CO)NC(=O)[C@H]1C=C2c3cccc4[nH]cc(c34)C[C@@H]2N(C)C1",
    "Potency": "> 20.6 µM (inactive)"
  },
  {
    "compound": "c1cc(CN2CCCC3(CCNCC3)C2)ccn1",
    "Potency": "> 46 µM (inactive)"
  },
  {
    "compound": "COc1ccc(NC(=O)N2CC3(CCN(C(=O)Oc4ccccc4)CC3)C2)cc1",
    "Potency": "> 46 µM (inactive)"
  },
  {
    "compound": "O=C(Nc1ccccc1)N1CC[C@@]2(CCCN(C(=O)Oc3ccccc3)C2)C1",
    "Potency": "> 46 µM (inactive)"
  }
]

// Potency lookup, compound = "C=C1C/C(=C\C)C(=O)O[C@@H]2CCN3CC=C(COC(=O)[C@@]1(C)O)[C@H]23" , result: > 20.6 µM (inactive)

// Potency lookup, compound = "O=C(Nc1cccc(F)c1)N1CCCC2(CCN(C(=O)Oc3ccccc3)CC2)C1" , result: > 46 µM (inactive)

* * *

- measurement description: Cell Viability - LYMP2-007 (AID 979);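 note: cells exposed to compound for 24 h before reading; 0% = DMSO only and the negative end = 92 µM tetraoctylammonium bromide; nearly all actives have a fitted effect of over 60% in size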
- experimental conditions: LYMP2-007 lymphoblastoid cell viability; series mostly up to 92.2 µM
Results filed as inconclusive are left out. Activity calls are given as the source filed them. The call rests on the fitted dose curve; in most records, active means well fitted cell-killing curve with a large enough effect; inconclusive means small, poorly fitted or top-dose-only effect; inactive means flat fitted curve, though single readings scatter.
Assign a class; possible classes are active, inactive

[
  {
    "compound": "CC(C)(C)OOC(C)(C)C",
    "label value": "inactive"
  }
]

Q: Look up the recorded call for "ClC(Cl)=C(Cl)C(Cl)=C(Cl)Cl" in this test.
Ans: inactive

Q: Look up the recorded call for "CCCOC(=O)c1ccccc1C(=O)OCCC" in this test.
Ans: inactive

Q: Look up the recorded call for "Clc1nc(Cl)nc(Nc2ccccc2Cl)n1" in this test.
Ans: inactive

* * *

Known activity change, negative = inhibition of a selection of molecules
- measurement description: Primary qHTS to identify inhibitors of SARS-CoV-2 cell entry (AID 1645846); note: nearly all actives have a fitted effect of over 45% in size
- experimental conditions: SARS-CoV-2 pseudovirus cell entry assay, luminescence; at 57.1 µM (top of the series) unless noted
Results filed as inconclusive are left out.
Numbers only; they are read as %.

// activity change, negative = inhibition lookup, molecule = "Cc1c(F)cc(C(=O)NC2CC2)cc1-c1c(F)cn2c(C(C)(C)C)nnc2c1F" , result: 3.6

// activity change, negative = inhibition lookup, molecule = "CCCCCCCCCCCCCCCC(=O)OCC(=O)[C@@]1(O)[C@H](C)C[C@H]2[C@@H]3CCC4=CC(=O)C=C[C@]4(C)[C@@]3(F)[C@@H](O)C[C@@]21C" , result: 3.26

// activity change, negative = inhibition lookup, molecule = NC(CC1c2ccccc2Oc2ccccc21)(C(=O)O)C1CC1C(=O)O (configuration not stated) , result: 4.33

// activity change, negative = inhibition lookup, molecule = "CN1CCc2nc(C(=O)N[C@@H]3C[C@@H](C(=O)N(C)C)CC[C@@H]3NC(=O)C(=O)Nc3ccc(Cl)cn3)sc2C1" , result: -19.9

* * *

- Test system: CP247
- measurement description: qHTS profiling for inhibitors of Plasmodium falciparum proliferation (AID 504749); note: nearly all actives have a fitted effect of over 60% in size
- experimental conditions: P. falciparum in erythrocytes, SYBR Green DNA, 72 h; series mostly up to 28.7 µM
Records with an inconclusive call do not appear. The source made the active and inactive calls. Calls come from the whole dose curve; as a rule, active = well fitted inhibition curve with a large enough effect; inconclusive = small, poorly fitted or top-dose-only effect; inactive = flat fitted curve, though single readings scatter.
Assign a class; possible classes are active, inactive

Look over these answered cases.
[
  {
    "molecule": "O=C1C=C2C=CC3C[C@@]2(O1)C1CCCCN31 (some centres undefined)",
    "subject of test": "CP247",
    "label value": "active"
  },
  {
    "molecule": "C[N+]1(C)[C@@H]2CC[C@H]1CC(OC(=O)[C@@H](CO)c1ccccc1)C2 (some centres undefined)",
    "subject of test": "CP247",
    "label value": "inactive"
  },
  {
    "molecule": "CNc1ccc(C(=O)CC(O)CCC(C)C2OC(=O)CC(O)CC(=O)CC(O)CC(O)CC(O)CC(O)CC3(O)CC(O)C(C(=O)OC)C(CC(O[C@@H]4OC(C)C(O)C(N)C4O)/C=C/C=C/C=C/C=C/C=C/C=C/C=C/C2C)O3)cc1 (some centres undefined)",
    "subject of test": "CP247",
    "label value": "inactive"
  }
]

Consider the record given below.
Q: Look up the recorded call for "CC(=O)O[C@H]1CC[C@@]2(C)C(=CC[C@@H]3[C@H]2CC[C@]2(C)C(=O)CC[C@H]32)C1" in this test.
Ans: inactive

* * *

- measurement description: qHTS to identify inhibitors of the type 1 interferon - major histocompatibility complex class I in skeletal muscle: primary screen against the NCATS Mechanism Interrogation Plate v5.0 (MIPE) Libary (AID 1347411); note: nearly all actives have a fitted effect of over 65% in size; note: potency is the fitted concentration of half-maximal effect
- experimental conditions: iHSKM cells + IFN-b, HiBiT-tagged MHC-I luminescence, 24 h; series mostly up to 45.8 µM
Results filed as inconclusive are left out. The source made the active and inactive calls. The call rests on the fitted dose curve; in most records, active means well fitted inhibition curve with a large enough effect; inconclusive means small, poorly fitted or top-dose-only effect; inactive means no such curve, though single readings can be large or run the other way.
reported property: Potency

Field: example entries. Status: answers known.
[
  {
    "compound": "Cc1c(N)nc([C@H](CC(N)=O)NC[C@@H](N)C(N)=O)nc1C(=O)N[C@H](C(=O)N[C@@H](C)[C@H](O)[C@@H](C)C(=O)N[C@@H](C(=O)NCCc1nc(-c2nc(C(=O)NCCC[S+](C)C)cs2)cs1)[C@@H](C)O)C(O[C@H]1O[C@H](CO)[C@H](O)[C@@H](O)[C@H]1O[C@H]1O[C@H](CO)[C@@H](O)[C@H](OC(N)=O)[C@@H]1O)c1cnc[nH]1 (some centres not stated)",
    "assay value": "inactive"
  },
  {
    "compound": "COc1cc2cc(c1Cl)N(C)C(=O)C[C@H](OC(=O)C(C)C)[C@]1(C)O[C@@H]1[C@H](C)[C@@H]1C[C@@](O)(NC(=O)O1)[C@H](OC)/C=C/C=C(\\C)C2",
    "assay value": "inactive"
  },
  {
    "compound": "Cc1[nH]ncc1-c1cc2nc([C@@H]3CC4CCN3CC4)[nH]c(=O)c2s1",
    "assay value": "7.39 µM (active)"
  },
  {
    "compound": "CC1(C)CC[C@]2(NC(=O)C(C)(F)F)CC[C@]3(C)[C@H](C(=O)C=C4[C@@]5(C)C=C(C#N)C(=O)C(C)(C)[C@@H]5CC[C@]43C)[C@@H]2C1",
    "assay value": "1.31 µM (active)"
  },
  {
    "compound": "CC(C)(NC(=O)O[C@@H]1CN2CCC1CC2)c1csc(-c2ccc(F)cc2)n1",
    "assay value": "inactive"
  }
]

// Potency lookup, compound = "Cn1c(/C=C/CO)c(CO)c2c1C(=O)C=C(N1CC1)C2=O" , result: inactive

// Potency lookup, compound = C=C[C@H]1CN2CCC1C[C@@H]2[C@@H](O)c1ccnc2ccccc12 (some centres not stated) , result: inactive

src = PubChem BioAssay (NCATS)
